Source: patent US20240228481A1

# system tested: QR1 (NQO1) (Homo sapiens, UniProt P15559)
# Construct: purchased Sigma-Aldrich
# Sequence (P15559 whole entry): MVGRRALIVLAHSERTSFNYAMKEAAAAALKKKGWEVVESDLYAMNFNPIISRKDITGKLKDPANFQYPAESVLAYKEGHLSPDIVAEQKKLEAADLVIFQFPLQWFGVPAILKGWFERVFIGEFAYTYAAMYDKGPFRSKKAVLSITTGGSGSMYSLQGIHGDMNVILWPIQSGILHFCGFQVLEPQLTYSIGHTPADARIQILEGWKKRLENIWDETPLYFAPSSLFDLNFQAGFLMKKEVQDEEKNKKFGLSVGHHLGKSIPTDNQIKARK
# assay info: Selectivity assay with QR1 in place of QR2, absorbance readout
# Assay type: biochemical
Measured IC50, listed per entry.

Prompt: Using the record for Cc1cc(-c2ccc(C)c(S(=O)(=O)NCC3CCN(Cc4ccco4)CC3)c2)on1 [PCM-0136246] , report its IC50.
Response: > 9.99 µM

Prompt: Same for CCc1noc(-c2c(S(=O)(=O)NCc3cccc(OC)c3)c(C)n(C)c2C)n1 [PCM-0200337]
Response: > 9.99 µM

Prompt: What would you report for CCCn1cc(C2CCN(S(=O)(=O)c3ccc(C(C)(C)C)cc3)CC2)c2cccnc21 [PCM-0105813] ?
Response: > 9.99 µM

Prompt: # iterate: Cc1ccn2cc(-c3cccc(S(=O)(=O)NCCCN4CCCC4=O)c3)nc2c1 [PCM-0213817]
Response: 3.44 µM

Prompt: Let us now turn to CCOC(=O)C1CCN(S(=O)(=O)c2cc(-c3csc(C)n3)ccc2C)CC1 [PCM-0197024]
Response: > 9.99 µM

Prompt: Also Cc1cc(-c2ccc(C)c(S(=O)(=O)N3CCN(C(=O)c4ccco4)CC3)c2)on1 [PCM-0212388] ?
Response: > 9.99 µM

Prompt: Further, for COc1ccc(OC)c(S(=O)(=O)Nc2cccc(-c3cn4c(C)csc4n3)c2)c1 [PCM-0121306] ?
Response: > 9.99 µM

Prompt: Now this one: O=S(=O)(Nc1cccc(-c2cn3ccsc3n2)c1)c1ccc2c(c1)OCCO2 [PCM-0190999]
Response: < 0.75 µM

* * *

# assay info: in vitro
# assay conditions: human
Counter-ions that a name gives are not always drawn.
Recorded IC50 at 72 h by entry

Examples with their reported IC50 at 72 h follow.
Cc1ccc(-c2cn3cccc(C)c3n2)cc1S(=O)(=O)N1CCCCCC1; > 99 µM
Cc1cccn2cc(-c3cccc(S(=O)(=O)NCc4cccnc4)c3)nc12; > 99 µM
Cc1cccn2cc(-c3cccc(S(=O)(=O)N(C)C)c3)nc12; > 100 µM

Now take the following compound into account.
Prompt: Fill in: IC50 at 72 h of Cc1ccc(-c2cn3cccc(C)c3n2)cc1S(=O)(=O)N1CCNCC1 [YB-537, hydrochloride] is ___
Response: > 99 µM

* * *

Each entry below carries its reported IC50.
# system tested: QR1 (NQO1) (Homo sapiens)
# Construct: purchased Sigma-Aldrich
# assay info: Selectivity assay with QR1 in place of QR2, fluorescence readout
# Type: biochemical

Prompt: Quick one: IC50 for COc1ccc(O)cc1NC(=O)c1oc2ccc(S(=O)(=O)N3CCCC3)cc2c1C ?
Response: > 9.9 µM

Prompt: For CCOC(=O)c1c(S(=O)(=O)N2CCN(Cc3ccccc3)CC2)c(C)n(C)c1C then?
Response: > 9.9 µM

Prompt: Lookup CCc1noc(-c2c(S(=O)(=O)NCc3cccc(OC)c3)c(C)n(C)c2C)n1
Response: > 9.9 µM

* * *

# system tested: QR1 (NQO1) (Homo sapiens, UniProt P15559)
# Construct: purchased Sigma-Aldrich
# assay info: Selectivity assay with QR1 in place of QR2, absorbance readout
# Assay type: biochemical
// reported IC50 per item

Cc1csc(-c2cc(S(=O)(=O)NC3CCCCC3)c(C)n2C)n1; > 9.99 µM
CCOC(=O)c1cc(-c2ccc(OC)c(S(=O)(=O)N3CCCc4ccccc43)c2)on1; > 9.99 µM
CCOC(=O)c1c(S(=O)(=O)N(CCC(C)C)Cc2ccco2)c(C)n(C)c1C; > 9.9 µM
Cc1ccn2cc(-c3cccc(S(=O)(=O)NCc4cccnc4)c3)nc2c1; 8.6 µM
Cc1cc(-c2ccc(C)c(S(=O)(=O)N3CCN(C(=O)c4ccco4)CC3)c2)n[nH]1; > 9.99 µM

Prompt: For the record CNC(=O)N1CCc2cc(S(=O)(=O)N3CCc4ccccc43)ccc21 , what value of IC50 is listed for QR1 (NQO1) (Homo sapiens, UniProt P15559)?
Response: > 9.99 µM

Prompt: # iterate: Cc1ccn2cc(-c3cccc(S(=O)(=O)N4CC(C)CC(C)C4)c3)nc2c1 (stereo not drawn)
Response: > 9.99 µM

Prompt: Proceed to Cc1cc(-c2ccc(C)c(S(=O)(=O)NCCCN3CCCC3=O)c2)on1
Response: > 9.99 µM

Prompt: Next compound: Cc1cccn2cc(-c3cccc(S(=O)(=O)N4CCCCCC4)c3)nc12
Response: 7.24 µM

* * *

# system tested: QR2 (Homo sapiens)
# assay info: QR2 enzymatic activity assay (menadione/BNAH), absorbance readout at 350 nm
# Assay type: biochemical
# Set-up: purchased Sigma-Aldrich
observable: IC50 (µM)

The cases that follow already have their IC50 on record.
Cc1cccn2cc(-c3cccc(S(=O)(=O)N4CCC(C)CC4)c3)nc12; 0.02
COc1ccc(OC)c(S(=O)(=O)Nc2cccc(-c3cn4c(C)csc4n3)c2)c1; 2.03
O=S(=O)(Nc1cccc(-c2cn3ccsc3n2)c1)c1ccc2c(c1)OCCO2; 4.03
COc1ccc(S(=O)(=O)N2CCC(NC(=O)N3CCCC3)CC2)cc1; 3.83
Cc1cc(-c2ccc(C)c(S(=O)(=O)NCC3CCN(Cc4ccco4)CC3)c2)on1; 2.56

I = Cc1ccc2nc(-c3cccc(S(=O)(=O)N4CC(C)OC(C)C4)c3)cn2c1 (centres unmarked)
II = Cc1ccn2cc(-c3ccc(C)c(S(=O)(=O)N4CCCC4)c3)nc2c1
Prompt: Consider entries I and II . Which has the numerically lower IC50? Choose, then provide that item's label.
Response: II
(II: 0.18 µM, I: 3.03 µM)

* * *

# system tested: QR2 (Homo sapiens)
# Sequence (P16083 1-231): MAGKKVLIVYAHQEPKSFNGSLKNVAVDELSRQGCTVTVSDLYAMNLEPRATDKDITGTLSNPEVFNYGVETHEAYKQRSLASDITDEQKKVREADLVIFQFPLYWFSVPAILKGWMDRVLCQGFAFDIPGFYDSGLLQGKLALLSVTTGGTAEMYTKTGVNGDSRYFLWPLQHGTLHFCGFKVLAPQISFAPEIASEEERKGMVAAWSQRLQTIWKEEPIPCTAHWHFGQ
# assay info: QR2 enzymatic activity assay (menadione/BNAH), absorbance readout at 350 nm
# Format: biochemical
# Parameters: purchased Sigma-Aldrich
observable: IC50 (µM)

CCCS(=O)(=O)Nc1ccc2c(c1)C(=O)Nc1cc(C)ccc1O2; 8.89

1 = Cc1ccc(-c2nnc(-c3ccccc3)o2)cc1S(=O)(=O)N1CCCCCC1
2 = CCOC(=O)c1c(S(=O)(=O)N(CCC(C)C)Cc2ccco2)c(C)n(C)c1C
Prompt: Smaller IC50 value? Options are 1 and 2 Reply with the label of the item you choose.
Response: 1

1 = Cc1ccn2cc(-c3cccc(S(=O)(=O)NCCCN4CCCC4=O)c3)nc2c1
2 = Cc1nc(-c2ccc(C)c(S(=O)(=O)N(C)C)c2)cs1
Prompt: Could you please tell me which of these two has the higher IC50: 1 or 2 ? Answer by stating the label of the chosen item.
Response: 1

I = Cc1cccn2cc(-c3cccc(S(=O)(=O)N4CCN(C(=O)c5ccco5)CC4)c3)nc12
II = Cc1ccn2cc(-c3ccc(C)c(S(=O)(=O)N4CCC(C)CC4)c3)nc2c1
Prompt: Which record shows the lower IC50: the first, I , or the second, II ? Please reply using the label of the selected record.
Response: I

1 = Cc1cc(-c2ccc(C)c(S(=O)(=O)N3CCCCCC3)c2)on1
2 = Cc1cccn2cc(-c3cccc(S(=O)(=O)NCCCN4CCCC4=O)c3)nc12
3 = CCc1noc(-c2c(S(=O)(=O)NCc3cccc(OC)c3)c(C)n(C)c2C)n1
4 = Cc1nc(-c2ccc(C)c(S(=O)(=O)NCCCN3CCCC3=O)c2)cs1
Prompt: Hey, can you sort those molecules up there by IC50, smallest first? Please reply with the labels ordered as requested. Many thanks.
Response: 2, 1, 4, 3
(2: 0.11 µM, 1: 1.24 µM, 4: 2.91 µM, 3: 8.09 µM)

A = Cc1cccn2cc(-c3cccc(S(=O)(=O)NCc4cccnc4)c3)nc12
B = Cc1cc(-c2ccc(C)c(S(=O)(=O)N3CCCCCC3)c2)[nH]n1
C = Cc1cc(-c2ccc(C)c(S(=O)(=O)N3CCN(C(=O)c4ccco4)CC3)c2)n[nH]1
D = Cc1nc(-c2ccc(C)c(S(=O)(=O)N3CCCCCC3)c2)cs1
Prompt: Rank order required: IC50, descending. # answer = labels listed in requested order
Response: D, B, C, A
(D: 2.44 µM, B: 0.28 µM, C: 0.08 µM, A: 0.02 µM)

P = Cc1ccc(-c2nnc(-c3ccccc3)o2)cc1S(=O)(=O)N1CCCC1
Q = Cc1nc(-c2ccc(C)c(S(=O)(=O)N3CCCC3)c2)cs1
Prompt: Select the item whose IC50 value is smaller, choosing between P and Q . Please identify the chosen entry by its label.
Response: P
(P: 0.25 µM, Q: 0.37 µM)

I = Cc1cc(-c2ccc(C)c(S(=O)(=O)N3CCCC3)c2)on1
II = Cc1ccc2nc(-c3cccc(S(=O)(=O)N4CCOCC4)c3)cn2c1
III = Cc1ccn2cc(-c3cccc(S(=O)(=O)N4CCCC4)c3)nc2c1
Prompt: Ascending sort, IC50. # format: label list in the order the request specifies
Response: III, I, II
(III: 0.16 µM, I: 0.75 µM, II: 1.65 µM)

1 = Cc1cc(-c2ccc(C)c(S(=O)(=O)NCc3cccnc3)c2)on1
2 = Cc1ccn2cc(-c3cccc(S(=O)(=O)NCc4cccnc4)c3)nc2c1
3 = Cc1cc(-c2ccc(C)c(S(=O)(=O)N3CCN(C(=O)c4ccco4)CC3)c2)on1
Prompt: Hey, quick one: sort these by IC50, largest value first please. # list labels per requested ordering
Response: 1, 3, 2
